Below, each of the compounds is paired with its reported pKi value.
Biological target: vanilloid receptor 1 (VR1/TRPV1) of the rat species (Rattus norvegicus)
Construct: The spinal column is removed from decapitated rats; from tissue; host or cells: primary cells dissociated from rat dorsal root ganglia
Sequence (O35433 whole entry): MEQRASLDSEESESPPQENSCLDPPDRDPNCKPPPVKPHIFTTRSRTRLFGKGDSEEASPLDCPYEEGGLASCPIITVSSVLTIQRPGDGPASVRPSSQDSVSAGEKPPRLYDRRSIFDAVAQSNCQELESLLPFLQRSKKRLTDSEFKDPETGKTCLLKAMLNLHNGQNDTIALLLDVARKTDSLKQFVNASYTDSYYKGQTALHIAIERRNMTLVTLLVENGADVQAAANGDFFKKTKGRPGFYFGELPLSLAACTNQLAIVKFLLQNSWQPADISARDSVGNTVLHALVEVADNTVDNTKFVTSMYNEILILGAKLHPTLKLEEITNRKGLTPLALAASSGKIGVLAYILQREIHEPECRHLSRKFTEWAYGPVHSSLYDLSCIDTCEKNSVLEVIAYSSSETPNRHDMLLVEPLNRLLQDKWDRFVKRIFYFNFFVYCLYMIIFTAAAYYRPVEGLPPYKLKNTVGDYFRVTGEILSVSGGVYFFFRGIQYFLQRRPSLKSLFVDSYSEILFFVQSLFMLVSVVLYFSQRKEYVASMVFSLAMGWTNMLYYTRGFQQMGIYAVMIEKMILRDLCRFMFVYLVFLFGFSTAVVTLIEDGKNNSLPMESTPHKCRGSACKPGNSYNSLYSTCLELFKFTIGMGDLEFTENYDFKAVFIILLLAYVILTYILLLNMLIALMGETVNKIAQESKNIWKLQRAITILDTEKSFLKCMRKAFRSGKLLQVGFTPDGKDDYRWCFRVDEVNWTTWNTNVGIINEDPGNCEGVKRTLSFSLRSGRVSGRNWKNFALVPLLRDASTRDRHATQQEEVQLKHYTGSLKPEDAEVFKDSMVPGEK
Test: FLIPR Ca2+ influx assay on rat dorsal root ganglia cells (pharmacological method I)
Type: cell-based
Settings: Ki (rat) Cap., table 4; capsaicin
pKi: −log10 of the molar value.
property_label: pKi

| compound | assayed_target | property_label | observed |
| --- | --- | --- | --- |
| CC(C(=O)NCc1ccc(C(F)(F)F)nc1OC1Cc2ccccc2C1)c1ccc(NS(C)(=O)=O)c(F)c1 (stereo not shown) | vanilloid receptor 1 (VR1/TRPV1) of the rat species (Rattus norvegicus) | pKi | 8.77 |
| CC1CCC(COc2nc(C(F)(F)F)ccc2CNC(=O)C(C)c2ccc(NS(C)(=O)=O)c(F)c2)CC1 (stereo not shown) | vanilloid receptor 1 (VR1/TRPV1) of the rat species (Rattus norvegicus) | pKi | 8.96 |
| CC(C(=O)NCc1ccc(C(F)(F)F)nc1OCCC(C)(C)C)c1ccc(NS(C)(=O)=O)c(F)c1 (stereo not shown) | vanilloid receptor 1 (VR1/TRPV1) of the rat species (Rattus norvegicus) | pKi | 9.00 |
| COc1cccc(COc2nc(C(F)(F)F)ccc2CNC(=O)C(C)c2ccc(NS(C)(=O)=O)c(F)c2)c1 (stereo not shown) | vanilloid receptor 1 (VR1/TRPV1) of the rat species (Rattus norvegicus) | pKi | 9.00 |
| CC(C(=O)NCc1ccc(C(F)(F)F)nc1OCc1ccccn1)c1ccc(NS(C)(=O)=O)c(F)c1 (stereo not shown) | vanilloid receptor 1 (VR1/TRPV1) of the rat species (Rattus norvegicus) | pKi | 7.61 |
| CCOc1nc(C(F)(F)F)ccc1CNC(=O)C(C)c1ccc(NS(C)(=O)=O)c(F)c1 (stereo not shown) | vanilloid receptor 1 (VR1/TRPV1) of the rat species (Rattus norvegicus) | pKi | 8.07 |
| CC(C(=O)NCc1ccc(C(F)(F)F)nc1Oc1ccccc1)c1ccc(NS(C)(=O)=O)c(F)c1 (stereo not shown) | vanilloid receptor 1 (VR1/TRPV1) of the rat species (Rattus norvegicus) | pKi | 9.05 |
